- System: HCC-2998 colon
- experimentDescription: NCI-60 one-dose screen, 48 h (100 = growth as untreated, 0 = no growth, -100 = all killed)
- particulars: 10 µM unless noted
This is part of a sample that, as a whole, favours compounds with a hit. Of some 83,000 tested, about 20% had one in any assay. Active and inactive are the calls of the source. The calls were made as follows: active = growth percent below 10; inactive = the rest.

- compound: "COc1ccc2c(c1)C(C)Cc1c(Cl)nc(C)nc1N2C (centres undefined)"
  assayedSystem: "HCC-2998 colon"
  growth: "30.3% (inactive)"
- compound: "Cc1ccc2c(c1)C(C)Cc1c(Cl)ncnc1N2C (centres undefined)"
  assayedSystem: "HCC-2998 colon"
  growth: "20.5% (inactive)"
- compound: "C#C[C@]1(O)CC[C@H]2[C@@H]3CC=C4c5nc(Nc6ccccc6[N+](=O)[O-])sc5CC[C@]4(C)[C@H]3CC[C@@]21C"
  assayedSystem: "HCC-2998 colon"
  growth: "61.1% (inactive)"
- compound: "CC1Cc2c(Cl)ncnc2N(C)c2ccccc21 (centres undefined)"
  assayedSystem: "HCC-2998 colon"
  growth: "34.5% (inactive)"
- compound: "COC(=O)c1c(C)[nH]c(/C=C2\\N=C(c3ccc[nH]3)C=C2OC)c1C"
  assayedSystem: "HCC-2998 colon"
  growth: "-40.9% (active)"
- compound: "CC1(C)[C@@H](NOCCCN)CC[C@]2(C)[C@H]3C(=O)C=C4[C@@H]5C[C@](C)(C(=O)O)CC[C@]5(C)CC[C@@]4(C)[C@]3(C)CC[C@@H]12"
  assayedSystem: "HCC-2998 colon"
  growth: "-50% [100 µM] (active)"
- compound: "COc1ccc(-c2cc(-c3ccc(Cl)cc3)nc(NCCCCNc3ccnc4cc(Cl)ccc34)n2)cc1"
  assayedSystem: "HCC-2998 colon"
  growth: "26.1% (inactive)"
- compound: "COc1cc(C)cc2oc3oc(=N)c(C(=O)c4ccccc4)cc3c(=O)c12"
  assayedSystem: "HCC-2998 colon"
  growth: "108% (inactive)"
- compound: "Cc1cccc(C[C@H](NC(=O)Nc2ccc(Cl)cc2F)C(=O)N[C@@H]2C(=O)N3C[C@H](O)C[C@H]3C(=O)N3CCCC[C@H]3C(=O)N[C@@H](C)C(=O)N3C[C@H](C)C[C@H]3C(=O)O[C@H]2C)c1"
  assayedSystem: "HCC-2998 colon"
  growth: "-49% (active)"
- compound: "O=[N+]([O-])c1ccc(O)c(-c2nc3ccccc3s2)c1"
  assayedSystem: "HCC-2998 colon"
  growth: "89.7% (inactive)"
- compound: "Cn1cc(-c2nnc(-c3ccccc3)s2)c2cc(Br)cnc21"
  assayedSystem: "HCC-2998 colon"
  growth: "101% (inactive)"
- compound: "CCNc1cc2c(cc1Br)-c1ccccc1C2=O"
  assayedSystem: "HCC-2998 colon"
  growth: "102% (inactive)"
- compound: "CCOc1cccc2c(NC(C)CCCN(CC)CC)c(C)cnc12 (centres undefined)"
  assayedSystem: "HCC-2998 colon"
  growth: "115% (inactive)"
- compound: "Cc1ccccc1OC(=O)c1cccc(Cl)c1"
  assayedSystem: "HCC-2998 colon"
  growth: "99.8% (inactive)"
- compound: "O=C(CCCSc1nc(-c2ccccc2)cc(-c2ccccc2)n1)NO"
  assayedSystem: "HCC-2998 colon"
  growth: "17.7% (inactive)"
- compound: "COc1ccc(/C=C(/C(=O)c2ccc(Cl)cc2)C(=O)C(F)(F)F)cc1"
  assayedSystem: "HCC-2998 colon"
  growth: "93.4% (inactive)"
- compound: "C=CCCCCCCCCC(=O)OC(C)C"
  assayedSystem: "HCC-2998 colon"
  growth: "112% (inactive)"
- compound: "COc1cc(OC)c(/C=C/C(=O)c2c(N)cc(OC)cc2OC)c(OC)c1"
  assayedSystem: "HCC-2998 colon"
  growth: "29.4% (inactive)"
- compound: "C=C(C)[C@@H]1CC[C@]2(C(N)=O)CC[C@]3(C)[C@H](CC[C@@H]4[C@@]5(C)C/C(=C/c6cccnc6)C(=O)C(C)(C)[C@@H]5CC[C@]43C)[C@@H]12"
  assayedSystem: "HCC-2998 colon"
  growth: "-15.9% [100 µM] (active)"
